# ASSAYED SYSTEM: mAChR M4 (Homo sapiens, UniProt P08173)
# Construct: expressed in transfected cells; host or cells: CHO-K1 cells stably transfected with M4 cDNA and chimeric G-protein Gqi5
# Sequence (P08173 1-479): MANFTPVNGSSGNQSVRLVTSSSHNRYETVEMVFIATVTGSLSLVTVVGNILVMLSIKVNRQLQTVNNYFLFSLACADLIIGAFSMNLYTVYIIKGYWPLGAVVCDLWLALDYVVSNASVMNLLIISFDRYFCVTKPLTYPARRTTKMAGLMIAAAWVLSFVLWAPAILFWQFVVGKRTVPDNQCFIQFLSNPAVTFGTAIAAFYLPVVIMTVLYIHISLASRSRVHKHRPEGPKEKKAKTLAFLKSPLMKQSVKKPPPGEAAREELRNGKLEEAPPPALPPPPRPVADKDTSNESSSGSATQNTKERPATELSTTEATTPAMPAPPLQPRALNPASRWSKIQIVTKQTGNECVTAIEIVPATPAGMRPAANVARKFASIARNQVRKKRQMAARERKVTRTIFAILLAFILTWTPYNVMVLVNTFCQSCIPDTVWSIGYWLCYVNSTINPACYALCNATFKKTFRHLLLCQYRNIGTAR
# ASSAY OVERVIEW: mAChR M4 cell-based functional assay (calcium mobilization, potentiation of EC20 acetylcholine response)
# ASSAY CONDITIONS: mAChR M4 cell-based functional assay; >10,000 estimated for low potency compounds without plateau; read-out: EC50
pEC50: −log10 of the molar value.
Label rule, in plain words: pEC50 of 7 and up is True, under 7 is False.

COMPOUND	LABEL CLASS
COc1ccccc1OC(=O)N1CC(NC(=O)c2sc3nnc(C)c(C)c3c2N)C1 [Example B376]	True

q: Identify whether the reported pEC50 of the following compound is 7 or greater: Cc1nnc2sc(C(=O)N3CC(F)(c4ccc(-c5cnn(C)c5)cc4)C3)c(N)c2c1C [Example B319]
a: False

q: Quick check, pEC50 >= 7? Cc1nnc2sc(C(=O)NCc3ccc(F)c(S(C)(=O)=O)c3)c(N)c2c1C [Example B78]
a: False

q: Quick check, pEC50 >= 7? Cc1nnc2sc(C(=O)N3CC(NC(=O)Oc4ccccc4)C3)c(N)c2c1C [Example B167]
a: False

q: Does the reported pEC50 for Cc1nnc2sc(C(=O)NCc3ccc(S(C)(=O)=O)c(F)c3)c(N)c2c1C [Example B33] fall at or above the 7 mark?
a: True

q: Can COc1cccc(C2(OC)CN(C(=O)c3sc4nnc(C)c(C)c4c3N)C2)c1 [Example B310] be said to have pEC50 at or above 7?
a: False

q: Textbook exercise: given the entry COc1ccc2c(c1)CCN(C(=O)c1sc3nnc(C)c(C)c3c1N)C2 [Example B315] , state whether its pEC50 is greater than or equal to 7.
a: False

q: Exam item: decide whether the reported pEC50 for Nc1c(C(=O)NCc2ccc3c(c2)OC(F)(F)O3)sc2nnc3c(c12)CCCC3 [Example B53] is at least 7.
a: False

q: Test whether the compound Cc1nnc2sc(C(=O)NC3CCN(C(=O)c4ccc(F)c(F)c4)C3)c(N)c2c1C (centres unmarked) [Example B255] records pEC50 of 7 or higher.
a: False

q: Say whether Cc1nnc2sc(C(=O)NC3CN(Cc4ccc(F)cc4)C3)c(N)c2c1C [Example B46] shows pEC50 of 7 or more.
a: False

q: Is pEC50 at least 7? Consider Cc1nnc2sc(C(=O)NCCNC(=O)Oc3ccccc3)c(N)c2c1C [Example B374]
a: False

q: Could you please find out whether Cc1nnc2sc(C(=O)NC3C4CC5CC(C4)CC3C5)c(N)c2c1C (centres unmarked) [Example B281] has pEC50 that meets 7 or exceeds it?
a: False

q: Say whether Cc1nnc2sc(C(=O)NC3CCN(S(=O)(=O)c4ccc(OC(F)(F)F)cc4)C3)c(N)c2c1C (centres unmarked) [Example B245] shows pEC50 of 7 or more.
a: False

q: Please tell me: is the compound Cc1nnc2sc(C(=O)NC3CN(c4ccccc4)C3)c(N)c2c1C [Example B481] at or over 7 in terms of pEC50?
a: True
